A set of molecules tested on Escherichia coli NCTC 10418, with measured MIC:

Worked cases, MIC given:
CC[C@H](C)[C@H](NC(=O)[C@H](Cc1ccc(O)cc1)NC(=O)[C@H](CC(C)C)NC(=O)[C@@H](N)Cc1ccccc1)C(=O)N[C@H](C(=O)N[C@@H](C)C(=O)N[C@@H](CCCCN)C(=O)N[C@@H](CC(C)C)C(=O)N[C@@H](CC(C)C)C(=O)N[C@@H](CO)C(=O)NCC(=O)N[C@@H](CC(C)C)C(=O)N[C@@H](CC(C)C)C(N)=O)C(C)C ≥ 512 µM
CC[C@H](C)[C@H](NC(=O)[C@@H](NC(=O)[C@@H]1CCCN1C(=O)[C@H](CC(C)C)NC(=O)[C@@H](N)Cc1ccccc1)C(C)C)C(=O)N[C@@H](C)C(=O)NCC(=O)N[C@H](C(=O)N[C@@H](CC(C)C)C(=O)N[C@@H](CO)C(=O)N[C@@H](CCCCN)C(=O)N[C@@H](CC(C)C)C(=O)N[C@@H](Cc1ccccc1)C(N)=O)C(C)C ≥ 40 µM
CC[C@H](C)[C@H](NC(=O)CNC(=O)CNC(=O)[C@H](C)NC(=O)[C@@H](NC(=O)[C@H](CCCCN)NC(=O)[C@@H]1CCCN1C(=O)[C@@H](NC(=O)[C@H](CC(C)C)NC(=O)[C@H](CO)NC(=O)[C@H](CC(C)C)NC(=O)[C@@H](N)Cc1ccccc1)[C@@H](C)CC)[C@@H](C)CC)C(=O)N[C@@H](C)C(=O)N[C@@H](C)C(=O)N[C@@H](CC(C)C)C(=O)N[C@@H](C)C(=O)N[C@@H](CCCCN)C(=O)N[C@@H](Cc1cnc[nH]1)C(=O)N[C@@H](CC(C)C)C(N)=O 16.6 µM
CC[C@H](C)[C@H](NC(=O)CNC(=O)CNC(=O)[C@H](C)NC(=O)[C@@H](NC(=O)[C@H](CCCCN)NC(=O)[C@@H]1CCCN1C(=O)[C@@H](NC(=O)[C@H](CCSC)NC(=O)[C@H](CO)NC(=O)[C@H](CC(C)C)NC(=O)[C@@H](N)Cc1ccccc1)[C@@H](C)CC)[C@@H](C)CC)C(=O)N[C@@H](C)C(=O)N[C@@H](CO)C(=O)N[C@@H](CC(C)C)C(=O)N[C@H](C(=O)N[C@@H](CCCCN)C(=O)N[C@@H](CC(N)=O)C(=O)N[C@@H](CC(C)C)C(N)=O)C(C)C ≥ 64.9 µM

**Q:** Checklist item: MIC tested on Escherichia coli NCTC 10418, entry `CC[C@H](C)[C@H](NC(=O)[C@H](C)NC(=O)[C@H](CCCCN)NC(=O)[C@@H]1CCCN1C(=O)[C@@H](NC(=O)[C@H](CC(C)C)NC(=O)[C@H](CCCCN)NC(=O)[C@H](Cc1ccccc1)NC(=O)[C@H](CC(C)C)NC(=O)[C@@H](N)Cc1ccccc1)[C@@H](C)CC)C(=O)N[C@@H](CCCCN)C(=O)NCC(=O)N[C@@H](CC(C)C)C(=O)N[C@@H](CC(C)C)C(=O)N[C@@H](CCCCN)C(=O)N[C@@H](C)C(=O)N[C@@H](Cc1ccccc1)C(=O)N[C@H](C=O)CCCCN` , value?
**A:** 8 µM

**Q:** Query for Escherichia coli NCTC 10418: what MIC does the record show for `NC(=O)[C@H](Cc1c[nH]c2ccccc12)NC(=O)[C@H](CCCN=C(N)N)NC(=O)[C@H](Cc1c[nH]c2ccccc12)NC(=O)[C@H](CCCN=C(N)N)NC(=O)[C@@H](N)Cc1c[nH]c2ccccc12` ?
**A:** ≥ 72 µM

**Q:** Missing value: MIC, Escherichia coli NCTC 10418, entry `CC[C@H](C)[C@H](NC(=O)[C@H](C)NC(=O)[C@H](CO)NC(=O)[C@@H](NC(=O)[C@H](C)NC(=O)[C@H](CCCCN)NC(=O)[C@@H]1CCCN1C(=O)[C@@H](NC(=O)[C@H](CC(C)C)NC(=O)[C@H](CO)NC(=O)[C@H](CC(C)C)NC(=O)[C@@H](N)Cc1ccccc1)[C@@H](C)CC)[C@@H](C)CC)C(=O)N[C@@H](CO)C(=O)N[C@@H](C)C(=O)N[C@@H](CC(C)C)C(=O)N[C@@H](C)C(=O)N[C@@H](CC(N)=O)C(=O)N[C@@H](Cc1cnc[nH]1)C(=O)N[C@@H](Cc1ccccc1)C(N)=O` . Fill in?
**A:** ≥ 64 µM
